Provenance of the data: ChEMBL document CHEMBL3885881

species: Rattus norvegicus; test: DrugMatrix - Regimen: Daily Repeat; type: toxicity, organism-based, Sprague-Dawley; parameters: regimen Daily Repeat, gender Male, age 6-8 weeks; conditions: in vivo, po, 0 mg/kg, 120 h, tissue Plasma, route oral GAVAGE, dose level Control, time 5 day, vehicle 100 % WATER
measure name: POTASSIUM (MEQ/L)
Just the number please, in MEQ/L, no unit attached.

Exercise: For the compound O.O.O.O.O.O.[Cl-].[Cl-].[Sr+2] [STRONTIUM CHLORIDE HEXAHYDRATE] , report POTASSIUM.
Solution: 6.28

###

species on record: Rattus norvegicus; assay: DrugMatrix - Regimen: Daily Repeat; format: toxicity, organism-based, Sprague-Dawley; design: regimen Daily Repeat, gender Male, age 6-8 weeks; conditions: in vivo, po, 0 mg/kg, 120 h, tissue Plasma, route oral GAVAGE, dose level Control, time 5 day, vehicle 100 % WATER
measure name: GLUCOSE (mg/dL)
Write down the numeric answer in mg/dL and omit the unit.

Exercise: In one line, give reported GLUCOSE of the entry "CS(=O)(=O)c1ccc([C@@H](O)[C@@H](CO)NC(=O)C(Cl)Cl)cc1" .
Solution: 172

Exercise: Supply GLUCOSE value. Item: CC(C)NCC(O)c1ccc(NS(C)(=O)=O)cc1 (centres undefined)
Solution: 148.33

Exercise: Find the measured GLUCOSE of CN(C)CCOC(c1ccccc1)c1ccccc1 [DIPHENHYDRAMINE] and report it.
Solution: 152.67

Exercise: Assign GLUCOSE to the following record: CN1[C@@H]2CC[C@H]1C[C@@H](OC(=O)C(CO)c1ccccc1)C2 (some centres undefined)
Solution: 152.33

Exercise: Return GLUCOSE for the following molecule: "Cc1ccc(NC(=O)c2ccc(CN3CCN(C)CC3)cc2)cc1Nc1nccc(-c2cccnc2)n1"
Solution: 172

Exercise: Check the records and state GLUCOSE for CC(C)(C)CC(C)(C)c1ccc(OCCOCC[N+](C)(C)Cc2ccccc2)cc1.[Cl-] [BENZETHONIUM CHLORIDE]
Solution: 152.67

###

organism: Rattus norvegicus; assay: DrugMatrix - Regimen: Daily Repeat; assay type: toxicity, organism-based, Sprague-Dawley; parameters: regimen Daily Repeat, gender Male, age 6-8 weeks; conditions: in vivo, po, 0 mg/kg, 72 h, tissue Plasma, route oral GAVAGE, dose level Control, time 3 day, […]
CARBON DIOXIDE for assorted compounds
Report the figure in mmol/L without appending any unit label.

For orientation, consider the following solved cases.
COc1cc(N)c(Cl)cc1C(=O)NC1CCN(CCCOc2ccc(F)cc2)CC1OC (centres undefined) [CISAPRIDE]; 27.5
Clc1ccc(COC(Cn2ccnc2)c2ccc(Cl)cc2Cl)cc1 (centres undefined); 36
CO[C@H]1/C=C/O[C@@]2(C)Oc3c(C)c(O)c4c(O)c(c(/C=N/N5CCN(C6CCCC6)CC5)c(O)c4c3C2=O)NC(=O)/C(C)=C\C=C\[C@H](C)[C@H](O)[C@@H](C)[C@@H](O)[C@@H](C)[C@H](OC(C)=O)[C@@H]1C; 28.67

Now for a further compound.
Exercise: Specify reported CARBON DIOXIDE for the compound shown: CC(C)(C)NC(=O)[C@H]1CC[C@H]2[C@@H]3CC[C@H]4NC(=O)C=C[C@]4(C)[C@H]3CC[C@]12C [FINASTERIDE]
Solution: 25

###

Listed next: entries and their corresponding GLUCOSE.
species: Rattus norvegicus; assay: DrugMatrix - Regimen: Daily Repeat; format: toxicity, organism-based, Sprague-Dawley; design: regimen Daily Repeat, gender Male, age 6-8 weeks; settings: in vivo, po, 0 mg/kg, 120 h, tissue Plasma, route oral GAVAGE, dose level Control, time 5 day, […]
Answer format: numeric, mg/dL implied, no suffix.

Known GLUCOSE results, listed for orientation:
COc1cc(N)c(Cl)cc1C(=O)NC1CCN(CCCOc2ccc(F)cc2)CC1OC (centres undefined) [CISAPRIDE]; 157.5
CO[C@H]1/C=C/O[C@@]2(C)Oc3c(C)c(O)c4c(O)c(c(/C=N/N5CCN(C6CCCC6)CC5)c(O)c4c3C2=O)NC(=O)/C(C)=C\C=C\[C@H](C)[C@H](O)[C@@H](C)[C@@H](O)[C@@H](C)[C@H](OC(C)=O)[C@@H]1C; 173.5
Clc1ccc(COC(Cn2ccnc2)c2ccc(Cl)cc2Cl)cc1 (centres undefined); 171.33

Read the next record carefully.
Exercise: Provide GLUCOSE value for the following molecule: CC(C)(C)NC(=O)[C@H]1CC[C@H]2[C@@H]3CC[C@H]4NC(=O)C=C[C@]4(C)[C@H]3CC[C@]12C [FINASTERIDE]
Solution: 161.33

###

species on record: Rattus norvegicus; experiment: DrugMatrix - Regimen: Daily Repeat; assay type: toxicity, organism-based, Sprague-Dawley; design: regimen Daily Repeat, gender Male, age 6-8 weeks; conditions: in vivo, po, 0 mg/kg, 120 h, tissue Plasma, route oral GAVAGE, dose level Control, time 5 day, vehicle .5 % CMC
// reported TOTAL PROTEIN per item
Just the number in G/DL, nothing appended.

COC1=C(OC)C(=O)C(CCCCCCCCCCO)=C(C)C1=O; 6.02
O=C1Nc2ccc(Cl)cc2C(c2ccccc2Cl)=NC1O (centres undefined); 6.08
NC1CCN(c2nc3c(cc2F)c(=O)c(C(=O)O)cn3-c2ccc(F)cc2F)C1 (centres undefined); 6.33
CN(C)[C@@H]1C(O)=C(C(N)=O)C(=O)[C@@]2(O)C(O)=C3C(=O)c4c(O)ccc(Cl)c4[C@@](C)(O)[C@H]3C[C@@H]12; 6.02
CC(C(=O)O)c1ccc2oc(-c3ccc(Cl)cc3)nc2c1 (centres undefined); 6.23
CNCCC(Oc1ccc(C(F)(F)F)cc1)c1ccccc1 (centres undefined); 6.32

Exercise: Give recorded TOTAL PROTEIN. "CC(=O)Oc1ccc(C(c2ccc(OC(C)=O)cc2)c2ccccn2)cc1"
Solution: 5.93

Exercise: Recall and state the measured TOTAL PROTEIN for "COc1ccc(C2C(=O)c3ccccc3C2=O)cc1" .
Solution: 6.55

Exercise: Please look at this molecule and report its TOTAL PROTEIN: "COc1ccc2c3c1O[C@H]1C[C@@H](O)C=C[C@@]31CCN(C)C2"
Solution: 6.1

###

organism: Rattus norvegicus; type: toxicity, organism-based, Sprague-Dawley; conditions: in vivo, po, 0 mg/kg, 24 h, vehicle control, tissue Blood, route oral GAVAGE, dose level Control, time 1 day, vehicle 100 % SALINE
Description: DrugMatrix - Regimen: Single
measure name: ABSOLUTE BASOPHIL (cells/µL)
State just the number; it will be interpreted in cells/µL.

Exercise: Look up and report measured ABSOLUTE BASOPHIL for this entry: Nc1ncnc2c1ncn2[C@@H]1O[C@H](CO)[C@@H](O)[C@H]1F [2'-BETA-FLUORO-2',3'-DEOXYADENOSINE]
Solution: 73.3

###

species on record: Rattus norvegicus; assay: DrugMatrix - Regimen: Daily Repeat; assay type: toxicity, organism-based, Sprague-Dawley; design: regimen Daily Repeat, gender Male, age 6-8 weeks; conditions: in vivo, po, 1500 mg/kg, 120 h, tissue Blood, route oral GAVAGE, dose level High, time 5 day, vehicle .5 % CMC
// values below are reported NUCLEATED RED BLOOD CELLS

CN(C)[C@@H]1C(O)=C(C(N)=O)C(=O)[C@@]2(O)C(O)=C3C(=O)c4c(O)ccc(Cl)c4[C@@](C)(O)[C@H]3C[C@@H]12; 0.33 /100WBC

Exercise: Specify NUCLEATED RED BLOOD CELLS for COC(=O)Nc1nc2ccc([S+]([O-])c3ccccc3)cc2[nH]1 (stereo not given) and stop.
Solution: 0 /100WBC

###

species: Rattus norvegicus; assay: DrugMatrix - Regimen: Daily Repeat; format: toxicity, organism-based, Sprague-Dawley; parameters: regimen Daily Repeat, gender Male, age 6-8 weeks; conditions: in vivo, po, 1500 mg/kg, 72 h, tissue Blood, route oral GAVAGE, dose level High, time 3 day, vehicle .5 % CMC
measure name: HEMATOCRIT (%)
Field: numeric (%). Do not append units.

Some entries whose results are on file:
CC(C)=CCC/C(C)=C/CO; 37.23
CN(C)[C@@H]1C(O)=C(C(N)=O)C(=O)[C@@]2(O)C(O)=C3C(=O)c4c(O)ccc(Cl)c4[C@@](C)(O)[C@H]3C[C@@H]12; 36
COC(=O)Nc1nc2ccc([S+]([O-])c3ccccc3)cc2[nH]1 (stereo not given); 34.2
O=c1cnn([C@@H]2O[C@H](CO)[C@@H](O)[C@H]2O)c(=O)[nH]1; 32.03

In the following, a different molecule is considered.
Exercise: Look up and state reported HEMATOCRIT for "CC(C)Oc1ccc2c(=O)c(-c3ccccc3)coc2c1"
Solution: 34.7

###

species: Rattus norvegicus; experiment: DrugMatrix - Regimen: Daily Repeat; format: toxicity, organism-based, Sprague-Dawley; design: regimen Daily Repeat, gender Male, age 6-8 weeks; settings: in vivo, po, 0 mg/kg, 120 h, tissue Plasma, route oral GAVAGE, dose level Control, time 5 day, vehicle .5 % CMC
measure name: BLOOD UREA NITROGEN

COc1ccc(C2C(=O)c3ccccc3C2=O)cc1; 18.67 mg/dL
CCN(CC)CCOc1ccc(/C(=C(/Cl)c2ccccc2)c2ccccc2)cc1; 20 mg/dL
CN(C/C=C/C#CC(C)(C)C)Cc1cccc2ccccc12; 15 mg/dL

Exercise: Tell me BLOOD UREA NITROGEN reported for "CN/C(=N/CCSCc1nc[nH]c1C)NC#N"
Solution: 17 mg/dL

Exercise: Fill in reported BLOOD UREA NITROGEN for this entry: O=C1C(CC[S+]([O-])c2ccccc2)C(=O)N(c2ccccc2)N1c1ccccc1 (centres undefined)
Solution: 18 mg/dL

Exercise: Dear colleague, please send me the reported BLOOD UREA NITROGEN for "COc1cc2nc(N3CCN(C(=O)c4ccco4)CC3)nc(N)c2cc1OC" when you can.
Solution: 18 mg/dL

Exercise: Could you please provide reported BLOOD UREA NITROGEN for "C[C@H]1O[C@@H](n2cc(F)c(=O)[nH]c2=O)[C@H](O)[C@@H]1O" ? Thanks!
Solution: 17 mg/dL

Exercise: Give BLOOD UREA NITROGEN for CC(C(=O)O)c1ccc2oc(-c3ccc(Cl)cc3)nc2c1 (centres undefined)
Solution: 13 mg/dL

Exercise: Supply BLOOD UREA NITROGEN value. Item: O=C1Nc2ccc(Cl)cc2C(c2ccccc2Cl)=NC1O (centres undefined)
Solution: 18 mg/dL
